koff overview
system under test: T1, recombinant soluble human GARP-TGFβ1 complex (human, UniProt Q14392 20-628; P01137 30-390)
T1 construct: co-expressed in HEK293E, purified by the Strep-Tag; TGFβ consists of LAP and mature TGFβ; also called shGARP-TGFβ; rhGARP-TGFβ
T1 sequence (Q14392 other isoform, or with tags, fused parts or gaps limits assumed, chain 1 of 2): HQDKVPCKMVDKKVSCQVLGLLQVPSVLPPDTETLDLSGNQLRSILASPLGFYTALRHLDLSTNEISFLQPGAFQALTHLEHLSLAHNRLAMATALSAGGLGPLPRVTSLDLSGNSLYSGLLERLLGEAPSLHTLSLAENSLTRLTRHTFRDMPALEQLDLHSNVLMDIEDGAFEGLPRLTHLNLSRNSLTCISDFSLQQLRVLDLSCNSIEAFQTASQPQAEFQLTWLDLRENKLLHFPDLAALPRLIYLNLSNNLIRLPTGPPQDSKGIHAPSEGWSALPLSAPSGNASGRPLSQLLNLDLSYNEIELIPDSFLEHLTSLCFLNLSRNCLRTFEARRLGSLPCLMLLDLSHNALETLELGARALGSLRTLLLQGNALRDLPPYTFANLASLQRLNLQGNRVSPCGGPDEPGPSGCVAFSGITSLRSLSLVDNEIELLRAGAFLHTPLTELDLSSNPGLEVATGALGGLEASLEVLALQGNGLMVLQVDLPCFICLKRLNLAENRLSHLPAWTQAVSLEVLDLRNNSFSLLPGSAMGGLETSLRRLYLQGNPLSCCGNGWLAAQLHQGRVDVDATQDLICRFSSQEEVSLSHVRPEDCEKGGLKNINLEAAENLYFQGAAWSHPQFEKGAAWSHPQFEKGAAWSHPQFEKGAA
T1 sequence (P01137 30-390 limits assumed, chain 2 of 2): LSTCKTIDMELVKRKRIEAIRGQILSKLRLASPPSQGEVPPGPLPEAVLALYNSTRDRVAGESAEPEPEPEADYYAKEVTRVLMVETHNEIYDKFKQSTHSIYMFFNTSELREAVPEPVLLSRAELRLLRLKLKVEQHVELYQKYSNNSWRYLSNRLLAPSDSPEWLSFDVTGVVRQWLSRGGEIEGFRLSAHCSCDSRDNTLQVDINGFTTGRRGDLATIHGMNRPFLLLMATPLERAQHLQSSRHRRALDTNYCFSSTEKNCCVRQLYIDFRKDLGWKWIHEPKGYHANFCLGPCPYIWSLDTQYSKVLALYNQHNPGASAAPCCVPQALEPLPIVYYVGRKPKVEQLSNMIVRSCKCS
assay name: SPR (Biacore), hGARP-TGFβ1 immobilised
Reply numerically in s⁻¹, unit not repeated.

Example results:
>>> numeric_value("LHG-10.4 (antibody, human IgG1, V domains shown, VK-shuffled variant of LHG-10, human IgG1) VH: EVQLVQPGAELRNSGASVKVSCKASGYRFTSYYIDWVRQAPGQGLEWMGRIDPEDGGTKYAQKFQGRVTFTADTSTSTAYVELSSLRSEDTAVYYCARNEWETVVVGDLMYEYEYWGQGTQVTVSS VL: DIQMTQSPSSLSASLGDRVTITCQASQSISSYLAWYQQKPGQAPKLLIYGTSRLKTGVPSRFSGSGSGTSFTLTISGLEAEDAGTYYCQQYYSAPVTFGQGTKVELK")
"1.3e-05"
>>> numeric_value("LHG-10.5-D (antibody, human IgG1, V domains shown) VH: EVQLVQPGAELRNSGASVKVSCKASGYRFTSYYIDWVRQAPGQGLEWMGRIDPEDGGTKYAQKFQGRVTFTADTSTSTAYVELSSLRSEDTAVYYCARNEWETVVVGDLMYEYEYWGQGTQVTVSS VL: DIQMTQSPSSLSPSLGDRVTITCQASQTISSFLAWYHQKPGQPPKLLIYRASIPQTGVPSRFSGSGSGTSFTLTIGGLEAEDAGTYYCQQYVSAPPTFGQGTKVELK")
"1.07e-05"

Read the next record carefully.
Quickly give me recorded koff for LHG-10.5 (antibody, human IgG1, V domains shown, VK-shuffled variant of LHG-10, human IgG1) VH: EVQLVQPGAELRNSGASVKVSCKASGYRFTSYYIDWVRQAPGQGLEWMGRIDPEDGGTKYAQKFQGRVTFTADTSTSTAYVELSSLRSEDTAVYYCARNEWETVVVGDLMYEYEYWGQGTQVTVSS VL: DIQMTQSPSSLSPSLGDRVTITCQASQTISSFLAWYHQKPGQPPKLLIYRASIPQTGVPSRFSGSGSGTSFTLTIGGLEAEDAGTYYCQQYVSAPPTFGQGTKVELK
1.37e-05
